Target protein (sequence): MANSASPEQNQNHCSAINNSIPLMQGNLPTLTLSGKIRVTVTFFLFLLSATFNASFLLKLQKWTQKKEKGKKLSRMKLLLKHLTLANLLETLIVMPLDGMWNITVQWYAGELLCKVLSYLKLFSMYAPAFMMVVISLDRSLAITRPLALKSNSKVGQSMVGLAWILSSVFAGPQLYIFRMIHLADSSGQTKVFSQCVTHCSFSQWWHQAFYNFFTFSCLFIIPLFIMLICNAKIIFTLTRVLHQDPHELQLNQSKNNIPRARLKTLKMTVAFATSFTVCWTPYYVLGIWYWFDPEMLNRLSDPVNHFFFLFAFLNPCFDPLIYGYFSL
Consider the following Ki data for the protein given by its sequence, collected from several reports.
Note to self: use 1 only for Ki readings below 10 nM; a reading exactly at 10 nM still gets 0.

Below, 6 molecules whose answers are already recorded.
MOLECULE	LABEL
COc1cccc(-c2c(C)n(Cc3c(F)cccc3F)c(=O)n(C[C@@H](C)N)c2=O)c1F	0
COc1cccc(-n2c(=O)n(Cc3c(F)cccc3F)c(=O)n(C[C@H](N)c3ccccc3)c2=O)c1	0
COc1cccc(-c2c(C)n(Cc3c(F)cccc3C(F)(F)F)c(=O)n(C[C@H](NCC(=O)O)c3ccccc3)c2=O)c1F	0
COc1cccc(-n2c(=O)n(CC[C@H](N)c3ccccc3)c(=O)n(Cc3c(F)cccc3F)c2=O)c1F	0
CN(C)Cc1c(-c2ccc([N+](=O)[O-])cc2)sc2c1c(=O)n(-c1ccccc1)c(=O)n2Cc1c(F)cccc1F	0
Cc1c(-c2ccccc2F)c(=O)n(C[C@H](N)c2ccccc2)c(=O)n1CCc1ccccn1	0

Next molecule, please.
Please indicate whether the reported Ki of `COc1cccc(-c2c(C)n(Cc3c(F)cccc3F)c(=O)n(C[C@H](N)C3CCCCC3)c2=O)c1F` is strictly below 10 nM.
1

====

Sequence of the target: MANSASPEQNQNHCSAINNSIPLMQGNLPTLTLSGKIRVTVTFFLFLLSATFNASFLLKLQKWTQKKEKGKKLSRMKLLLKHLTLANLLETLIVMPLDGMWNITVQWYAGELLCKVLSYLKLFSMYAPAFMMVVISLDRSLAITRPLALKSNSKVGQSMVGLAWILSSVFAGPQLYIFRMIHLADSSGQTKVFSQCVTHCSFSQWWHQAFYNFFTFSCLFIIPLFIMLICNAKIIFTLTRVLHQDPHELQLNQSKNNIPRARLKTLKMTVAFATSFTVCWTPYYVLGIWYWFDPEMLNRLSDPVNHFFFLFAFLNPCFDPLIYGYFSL
Record set: Ki | the protein given by its sequence | literature, multiple sources.

Recorded results for 5 molecules are shown here.
> print(dat)
                                   molecule  endpoint     result
1  CCOC(=O)c1cn(Cc2c(F)cccc2F)c2cc(-c3ccc(NC(=O)CC)cc3)c(CN(C)Cc3ccccc3)cc2c1=O        Ki    0.05 µM
2  COc1ccc(-c2c(C#N)c3n(Cc4ccccc4F)cc(C(=O)OC4CCOC4)c(=O)n3c2CN(C)CCc2ccccn2)cc1 (stereo unspecified)        Ki     2.1 µM
3  COc1cccc(-c2c(C)n(Cc3c(F)cccc3F)c(=O)n(C[C@H](CO)NC3CCCC3)c2=O)c1F        Ki  0.0049 µM
4  COc1cccc(-n2c(=O)n(CC3CCCCC3)c(=O)n(C[C@H](N)c3ccccc3)c2=O)c1F        Ki    > 10 µM
5  Cc1ccc(-c2nc(-c3c(C)n(Cc4c(F)cccc4F)c(=O)n(C[C@H](N)c4ccccc4)c3=O)cs2)cc1        Ki   0.018 µM

Attention now turns to another entry.
// field: Ki; key: `CC[C@@H](Cn1c(=O)c(-c2cccc(OC)c2Cl)c(C)n(Cc2c(F)cccc2C(F)(F)F)c1=O)NC1CCCC1` ; value = 0.0037 µM

====

// cross-source set; read-out = Ki; system = Gonadotropin-releasing hormone receptor (Homo sapiens, UniProt P30968)
For each record, check the reported Ki: if it is below 200 nM write Fulfilled, else write Not fulfilled.

Worked set:
COMPOUND	LABEL
COc1cccc(-c2c(C)n(Cc3c(F)cccc3F)c(=O)n(C[C@H](C)NCc3sccc3C)c2=O)c1F	Fulfilled
NC(Cn1c(=O)c(-c2ccccc2F)c2n(c1=O)C(c1ccccc1F)CO2)c1ccccc1 (stereo not given)	Not fulfilled

# TODO verify Ki < 200 nM strictly for this compound: `CCCC(=O)Nc1ccc(-c2cc3n(Cc4ccccc4F)cc(C(=O)OCC)c(=O)n3c2CN(C)CCc2ccccn2)cc1`
Fulfilled

Ki under 200 nM? Item: `Cc1c(-c2ccc(Cl)cc2)c(=O)n(C[C@H](N)c2ccccc2)c(=O)n1Cc1c(F)cccc1F`
Fulfilled

Is Ki strictly under 200 nM for the entry `CCNC(=O)Nc1ccc(-c2nc3n(Cc4c(F)cccc4F)cc(C(=O)OCC)c(=O)n3c2CN(CC(=O)N2CCC[C@H]2C(=O)NCC#Cc2ccc(C#CCNC(=O)[C@@H]3CCCN3C(=O)CN(Cc3ccccc3)Cc3c(-c4ccc(NC(=O)NCC)cc4)nc4n(Cc5c(F)cccc5F)cc(C(=O)OCC)c(=O)n34)cc2)Cc2ccccc2)cc1` ?
Not fulfilled
